// data source = PubChem BioAssay (NCI)

# Test system: SF-268 CNS
# assay.explanation: NCI tumour cell line growth inhibition, 48 h

>  <compound>
COc1cc([C@@H]2c3cc4c(cc3[C@@H](O[C@@H]3O[C@@H]5CO[C@@H](c6cccs6)O[C@H]5[C@H](O)[C@H]3O)[C@H]3COC(=O)[C@H]23)OCO4)cc(OC)c1O

>  <lt.gt.eq>
=

>  <TGI [µM]>
7.2

$$$$
>  <compound>
Cc1ccc(S(=O)(=O)Oc2cc(S(=O)(=O)O)cc3cc(S(=O)(=O)O)cc(N)c23)cc1

>  <lt.gt.eq>
>

>  <TGI [µM]>
100

$$$$
>  <compound>
N#CC(C#N)=CSc1ccccc1

>  <lt.gt.eq>
=

>  <TGI [µM]>
54.1

$$$$
>  <compound>
COc1ccc(/C=C\c2cc(OC)c(OC)c(OC)c2)cc1OC(=O)c1cccc(Cn2cc(CCOC(=O)c3cccc(Cn4nnc5c4C(=O)c4ccccc4C5=O)c3)nn2)c1

>  <lt.gt.eq>
=

>  <TGI [µM]>
35

$$$$
>  <compound>
CCN(CC)Cc1nc(C2CCC([N+](=O)[O-])O2)no1 (configuration not stated)

>  <lt.gt.eq>
=

>  <TGI [µM]>
79.6

$$$$
>  <compound>
COC(=O)Nc1nc2cc3c(cc2s1)OCCO3

>  <lt.gt.eq>
>

>  <TGI [µM]>
50

$$$$
>  <compound>
CN(C)CCCNc1nccc(-c2c(-c3ccc(F)cc3)nn3cc(C(F)(F)F)ccc23)n1

>  <lt.gt.eq>
>

>  <TGI [µM]>
25

$$$$

----------
Reported TGI values for a set of compounds
# Tested on: SK-MEL-2 melanoma
# assay.explanation: NCI tumour cell line growth inhibition, 48 h
Where a SMILES comes first, the peptide text is derived from it. [ ]: non-standard residue; d: D form. The star is where a group is joined. ξ: configuration not given here. NMeF = CN[C@@H](Cc1ccccc1)C(=O)O; ξNMeV = CNC(C(=O)O)C(C)C; Boc = CC(C)(C)OC(=O)*; OBn = c1ccc(CO*)cc1

>  <compound>
O=C1CC(=O)c2c(Cl)sc(Cl)c21

>  <TGI>
> 100 µM

$$$$
>  <compound>
CCN1CC2=C(NC(=S)NC2c2cc(OC)c(OC)c(OC)c2)/C(=C/c2cc(OC)c(OC)c(OC)c2)C1 (centres undefined)

>  <TGI>
> 100 µM

$$$$
>  <compound>
COP1(=O)NCc2ncccc2O1 (centres undefined)

>  <TGI>
> 100 µM

$$$$
>  <compound>
CCCCNC(=O)Nc1c(C(N)=O)c2n(c1C(=O)OCC)CCCCC2

>  <TGI>
> 100 µM

$$$$
>  <compound>
COc1ccc2c(=O)c3cc([N+](=O)[O-])ccc3n(C)c2c1

>  <TGI>
> 100 µM

$$$$
>  <compound>
CC(=O)OCC1OC(OC2=C(CC=C(Cl)Cl)C(=O)c3ccccc3C2=O)C(OC(C)=O)C(OC(C)=O)C1OC(C)=O (centres undefined)

>  <TGI>
9.25 µM

$$$$
>  <compound>
CC(C)C(C(=O)N1CCC[C@@H]1C(=O)OCc1ccccc1)N(C)C(=O)C(C(C)C)N(C)C(=O)[C@H](Cc1ccccc1)N(C)C(=O)[C@H](NC(=O)OC(C)(C)C)C(C)C (some centres undefined) (Boc-[dV][NMeF][ξNMeV][ξNMeV][dP]-OBn)

>  <TGI>
> 100 µM

$$$$
>  <compound>
O=C(Nc1ccccc1C(=O)O)/C(=C/c1ccccc1)NC(=O)c1ccccc1

>  <TGI>
> 100 µM

$$$$
>  <compound>
C=C(CS(=O)(=O)c1ccccc1)[P+](c1ccccc1)(c1ccccc1)c1ccccc1

>  <TGI>
> 100 µM

$$$$
>  <compound>
COc1cc2c3c(n(CCN(C)C)c(=O)c2cc1OC)-c1cc2c(cc1C3=O)OCO2

>  <TGI>
> 100 µM

$$$$
>  <compound>
Oc1c(-c2ccccc2)sc2ccccc12

>  <TGI>
41 µM

$$$$
>  <compound>
CN(C)CCCNc1nccc(-c2c(-c3ccc(F)cc3)nn3cc(C(F)(F)F)ccc23)n1

>  <TGI>
14.2 µM

$$$$
>  <compound>
O=c1c2ccccc2c(=O)c2c1cc(Cl)c1[nH]c3c([nH]c12)c(Cl)cc1c(=O)c2ccccc2c(=O)c13

>  <TGI>
> 100 µM

$$$$
>  <compound>
CCn1c(=O)ccc2ccc(N(CCO)CCO)nc21

>  <TGI>
> 100 µM

$$$$
>  <compound>
CCOc1ccc2c(ccc(/C=C\c3cc(C)c4cccnc4c3O)[n+]2C)c1

>  <TGI>
3.24 µM

$$$$
>  <compound>
CC(C)=CC(=O)OC1C2C(C)C(=O)OC2C(O)C(C)C2C=CC(=O)C21C (centres undefined)

>  <TGI>
11.5 µM

$$$$
>  <compound>
COc1cccc(C2NC(=S)NC(C)=C2C(=O)Nc2ccc(F)c(Cl)c2)c1 (centres undefined)

>  <TGI>
> 50 µM

$$$$
>  <compound>
COc1cc(C2CC(c3cc(C)ccc3C)=NN2c2ccc(S(=O)(=O)NC(=O)NCc3ccccc3)cc2)cc(OC)c1OC (centres undefined)

>  <TGI>
6.25 µM

$$$$
>  <compound>
CC(C)OP(=O)(OC(C)C)/C(=N/N)NNc1ccc([N+](=O)[O-])cc1

>  <TGI>
> 100 µM

$$$$
